Overview of reported cytotoxicity at 10 µM across a group of compounds:
assay: Toxicity liver stage against HepG2, at 10uM; type: cell-based; design: test concentration 10 uM, cell line HepG2-A16-CD81EGFP; settings: human, HepG2-A16-CD81EGFP cells; read-out: INHIBITION

compound	cytotoxicity at 10 µM
CN(CC(N)=O)Cc1cc(Cl)cc2cccnc12	6.37%
CCCC(=O)N1CCN(CC(O)COCC)CC1 (configuration not stated)	-20.6%
CC(C)(CNc1cc(F)ccc1F)S(C)(=O)=O	-2.94%
COC(=O)CCNC(=O)c1c[nH]cc1-c1ccccc1OC	6.17%
CCOCC1CN(C(=O)Cc2ccccn2)Cc2cnn(C)c21 (configuration not stated)	6.9%
O=C(NCc1nc(NC2CCCC2)c2cc(Cl)ccc2n1)c1cncs1	4.15%
CCc1ccc(CN2CCCC(CO)(CCOC)C2)cc1 (configuration not stated)	-0.26%
CN1CCN(c2cc(CNC(=O)c3ccsc3)ccn2)CC1	-7.27%
CCOC(C)c1noc(CN2CCN(Cc3ccno3)CC2)n1 (configuration not stated)	7.24%
Cn1cc(CNC(=O)Nc2ccc(S(=O)(=O)C(F)F)cc2)cn1	-5.09%
Cc1ccc(-c2cc(C(F)(F)F)nc(N3CCOCC3)n2)s1	0.452%
CN1CCCN(c2nccc(-c3c[nH]c4ccc(Br)cc34)n2)CC1	-9.99%

* * *

assay: Toxicity liver stage against HepG2, at 10uM; type: cell-based; set-up: test concentration 10 uM, cell line HepG2-A16-CD81EGFP; conditions: human, HepG2-A16-CD81EGFP cells; read-out: INHIBITION

compound	cytotoxicity at 10 µM / %
COc1ccccc1CNC(C)c1ccc2[nH]c(=O)[nH]c2c1 (centres undefined)	-18
Cn1nc(C(=O)N2CCCCCC2)cc1NC(=O)c1ccccc1	-0.942
CCc1nc(C)c(C(=O)N2CCCC(c3noc(C)n3)C2)s1 (centres undefined)	5.82
CN(C)S(=O)(=O)N1CCCC(C)(c2ncc(C(N)=O)s2)C1 (centres undefined)	-2.36
COc1cccc(CN2C[C@H]3CC[C@H]2C3)c1OCCN1CCOCC1	0.101
CCCNC(=O)Cn1cc(-c2ccccc2)cn1	-0.553
O=C(c1cscn1)N1CCN2C[C@H](OCc3cccnc3)C[C@H]2C1	-7.62
O=C(Nc1nncs1)N1CCC(c2ccc(O)cc2)CC1	-7.55
COc1ccc(C2=CCN(C(=O)CN(C)Cc3ccoc3)CC2)cc1	-4.87
Cc1cccnc1NC(=O)CC1(Cn2cnnn2)CCCCC1	-5.62
O=C(NC1CCCC1)C1Cc2nc(-c3ccsc3)sc2N1CC1CC1 (centres undefined)	16.6
NCCCn1nc(C(F)(F)F)c2c1CCC2	-8.3
CCN(Cc1cccc2c1OCO2)C(=O)NCCOC	1.45
CCn1c(C2CCCN(Cc3ccc4ccccc4n3)C2)nn(C)c1=O (centres undefined)	0.687
Cc1cc(N2CCC3(CCC(=O)N(CC4CC4)C3)CC2)nc(N)n1	6.92
Cc1cc(C(=O)NC(C)c2nnn[nH]2)c2ccc(C)c(C)c2n1 (centres undefined)	-10.7
CCN1CCN(C(C)(C)CNc2nc(C)cc(C3CCC3)n2)CC1	1.47
CCn1c(CN(C)C)nnc1C1CCN(c2nccc(NC)n2)CC1	7.36
COCC(=O)N1CCN(c2cc(C)nc(C3CCCN3C(C)=O)c2)CC1 (centres undefined)	1.86
Cc1ccc2c(c1)C(NC1CC1)CC21CCNCC1 (centres undefined)	-98
COC1COC2(CCN(C(=O)c3cocn3)CC2)C1 (centres undefined)	9.64
O=C(CCNC(=O)c1cnccn1)Nc1ncc[nH]1	-44.7
CC(C)N1Cc2c(C(=O)N3CCN(C)CC3)nn(C)c2C1	-104
CCC(CC)(CNC(=O)OC(C)(C)C)NC(=O)c1cnccn1	-8.56

* * *

assay: Toxicity liver stage against HepG2, at 10uM; type: cell-based; parameters: test concentration 10 uM, cell line HepG2-A16-CD81EGFP; conditions: human, HepG2-A16-CD81EGFP cells; read-out: INHIBITION
Overview of reported cytotoxicity at 10 µM across a group of compounds:

compound	cytotoxicity at 10 µM
CCc1ccsc1C(=O)N1CCS(=O)(=O)CC1	5.36%
Cn1cccc1C(=O)N1C[C@@H](OCc2cccnc2)[C@H]2OCCC[C@H]21	7.06%
CNC(=O)CCc1cc(C2CCCN2S(C)(=O)=O)nc(C)n1 (stereo not given)	-0.0612%
Cc1noc(C)c1CN1C[C@@H](OCC(=O)N(C)C)[C@H]2OCCC[C@H]21	12.1%
COc1cccc(CC(=O)N2CCC(Cc3nnc(SC)n3C)CC2)c1	-40.2%

* * *

experiment: Toxicity liver stage against HepG2, at 10uM; type: cell-based; design: test concentration 10 uM, cell line HepG2-A16-CD81EGFP; details: human, HepG2-A16-CD81EGFP cells; read-out: INHIBITION
observable: cytotoxicity at 10 µM (%)

molecule	unitOfMeasure	obsValue
Cc1ccccc1S(=O)(=O)NC(=O)C1(c2ccccc2)CCC1	%	-6.9
Cc1nc(CN2Cc3nccn3CC(CN3CCCC3)C2)cs1 (stereo not drawn)	%	2.43
O=C1CCC2(CCCN(C(=O)C3CCCC3)C2)CN1CCc1c[nH]cn1 (stereo not drawn)	%	-0.699
N#Cc1cnc(NCc2cccc(C(=O)N3CCCC3)c2)c(Cl)c1	%	-0.657
Cc1nc(C)c(C(=O)NCCNc2ncccc2C(F)(F)F)s1	%	-3.08
O=C(O)[C@@H]1CN(C(=O)CSCC2CC2)C[C@H]1c1ccncc1	%	-17.6
CC(C)C(C(=O)N1CCN(Cc2cscn2)CC1)n1cncn1 (stereo not drawn)	%	7.89
CSc1nnc(CC2CCN(C(=O)CCc3cccnc3)CC2)n1C	%	-43.5
CCn1ccnc1CNCc1ccc(C)cc1OC(C)(C)C	%	1.03
Cc1c[nH]nc1C1CCCCN1C(=O)CCn1nccc1C (stereo not drawn)	%	-6.39
Cc1c(NCCCOc2cccc(C#N)c2)cccc1C(N)=O	%	-0.572
CC(C)(C)NC(=O)COc1ccc(CNCCOc2ccccn2)cc1	%	-3.76
CCN1C[C@H]2[C@@H](C1)N(S(=O)(=O)c1ccccc1F)CC[C@H]2OC	%	-74.1
O=C(c1ccccc1)N1CC[C@H]2C[C@H](c3nnc(C4CC4)o3)O[C@@H]2C1	%	-102
Cc1nn2cccnc2c1C(=O)N1CCCC(n2ccnc2)C1 (stereo not drawn)	%	-4.62
Cc1nccn1-c1cc(CNC(=O)CCS(=O)(=O)C2CCCC2)ccn1	%	-1.71
CN(C)[C@@H]1CN(C(=O)c2cc3cccc(F)c3[nH]2)C[C@H]1O	%	-1.49
Cn1cncc1C(=O)N1CCOC2(COCCN(CC3CC3)C2)C1 (stereo not drawn)	%	9.17
COc1c(C2CCCN2C(=O)c2cncnc2C)c(C)nn1C (stereo not drawn)	%	-6.19
CC(C)N(C)Cc1n[nH]c2c1CCN(C(=O)c1cc[nH]n1)C2	%	-134
COc1ccsc1C(=O)Nc1cc(Cl)c(=O)n(C)c1	%	2.05
CC1CCCN(C(=O)c2ccn(COc3ccccc3)n2)C1 (stereo not drawn)	%	9.43
CS(=O)(=O)N1CCC2(CC1)CC(OCC1CCOCC1)CO2 (stereo not drawn)	%	8.16

* * *

test: Toxicity liver stage against HepG2, at 10uM; type: cell-based; design: test concentration 10 uM, cell line HepG2-A16-CD81EGFP; conditions: human, HepG2-A16-CD81EGFP cells; read-out: INHIBITION
Overview of reported cytotoxicity at 10 µM across a group of molecules:
observable: cytotoxicity at 10 µM (%)

molecule	obsValue
Cc1cccc(OC2CN(C(=O)c3cnn(C)c3)C2)c1	-2.92
CCn1c(N)nc2cc(C(=O)N3CCCOCC3)cnc21	-8.24
CC(C)N(C)S(=O)(=O)N(C)Cc1cnn(Cc2ccccc2)c1	7.01
O=c1[nH]c2cn(-c3cccc(Cl)c3)c(=O)n2n1Cc1cccc(F)c1	11
CCc1cccc2c(CC(=O)N(C)CCN(C)C)c(C)[nH]c12	1.26
Cc1ccc(C(=O)N2CCc3ncnc(-c4cnn(C)c4)c3CC2)o1	2.11
Cn1ncc2c(=O)[nH]c(CN3CCCC3c3ccsc3)nc21 (configuration not stated)	-18
CC(CCn1cccn1)NCc1n[nH]c2c1CCCCC2 (configuration not stated)	-3.98
CNc1nc2cn(CCc3ccc(Cl)cc3)c(=O)c-2c[nH]1	5.2
Cc1nc(CN2CCC(C(=O)O)(n3ccc(C(C)C)n3)CC2)co1	-125
O=C(NCCCc1nc(=O)[nH][nH]1)Nc1ccc(Cl)cc1	-54.9
Cc1cc(CNC(=O)c2ccno2)c(C)o1	-6.39

* * *

assay: Toxicity liver stage against HepG2, at 10uM; type: cell-based; parameters: test concentration 10 uM, cell line HepG2-A16-CD81EGFP; details: human, HepG2-A16-CD81EGFP cells; read-out: INHIBITION
Overview of reported cytotoxicity at 10 µM across a group of compounds:
observable: cytotoxicity at 10 µM (%)

compound	observable	obsValue
O=C1OC2(CCN(C(=O)C3NCCc4[nH]cnc43)CC2)c2ccccc21 (configuration not stated)	cytotoxicity at 10 µM	-7.05
Cc1noc(C)c1-c1cccc(C2CCCNC2)n1 (configuration not stated)	cytotoxicity at 10 µM	-12.3
Cc1ccccc1-c1cncc(C2CCN(Cc3cnn(C)c3)CC2)n1	cytotoxicity at 10 µM	-30.6
COC(=O)N1CCCC(NC(=O)NCc2csc(C)n2)C1 (configuration not stated)	cytotoxicity at 10 µM	3.93
O=C(c1cccs1)N1CCCn2c(nc(CN3CCCC3)cc2=O)C1	cytotoxicity at 10 µM	-3.32
COCCNC(=O)Cn1cc(NC(=O)c2cc(Cl)c(Cl)n2C)cn1	cytotoxicity at 10 µM	-4.01
Cc1ccc(-c2nc(CN3CCc4nn(C)c(=O)cc4C3)co2)cc1	cytotoxicity at 10 µM	-11.6
COCC1CN(C(=O)Cc2ccccn2)Cc2c1cnn2CC1CC1 (configuration not stated)	cytotoxicity at 10 µM	-69.1
COc1ccc(C(C)NCc2ccsc2)cc1Cn1cccn1 (configuration not stated)	cytotoxicity at 10 µM	7.86
CCC(O)CN1CCN(C(=O)c2cnn(-c3ccccc3F)c2)CC1 (configuration not stated)	cytotoxicity at 10 µM	-3.69
OCC(CO)Nc1nc(C(F)F)nc2ccccc12	cytotoxicity at 10 µM	6.96
CC(C)NC(=O)c1csc(NC2CC2)n1	cytotoxicity at 10 µM	-2.72
